experiment: FRG1 expression reporter modulators in myotubes – cell-based, C2C12 myotubes, firefly/Renilla luciferase, luminescence, FRG1 inhibition for FSHD, primary screen (AID 1084); conditions: FRG1 promoter luciferase, higher = more signal, called active from +8 up or from −8 down
Response field class: enum, chosen by comparing z-score against low class: < -0.8; middle class: ≥ -0.8 and < 0.5; high class: ≥ 0.5

Solved cases below.
Compound	Category
CC(C)C[C@H]1NC(=O)C([C@@H](C)OCc2ccccc2)NC(=O)[C@@]23C(=O)N[C@@H](Cc4ccccc4)C2[C@H](C)[C@@]2(C)O[C@H]2C3/C=C/C/C=C\CNC1=O (stereo partly drawn)	high class
O=C1C[C@@](C(=O)O)(c2ccc([N+](=O)[O-])cc2)[C@@H](c2ccc(CO)cc2)N1C1CCCCC1	middle class
COC(=O)C1(Cc2ccccc2)C=C2C(=C(C)C(=O)C2C)CN1 (stereo not drawn)	middle class
C=CCC(OC(C)=O)[C@@H]1[C@@H](N(Cc2cccc3ccccc23)C(=O)Cc2ccc(OC)cc2)c2cc(OCCCO)ccc2N1C(=O)Cc1ccc2ccccc2c1 (stereo partly drawn)	low class
C=CC[C@]1(C(=O)NCC(O)CO)COC(c2ccc(OCCCO)cc2)=N1 (stereo partly drawn)	high class

Lookup: Place this compound in its band: OCCCC1=CC(c2ccc(CN3CCCC3)cc2)N(Cc2cccc(OC(F)(F)F)c2)CC1 (stereo not drawn)
Found: middle class

Lookup: Place this compound in its band: `COc1ccc([Si](C)(C)[C@H]2[C@H](CCO)O[C@@]3(C(=O)N(Cc4ccc(NC(=O)[C@H](C)O)cc4)c4ccccc43)[C@@H]2C)cc1`
Found: low class

---

assay: basal CRE-LacZ reporter activity in PC12 – cell-based, unstimulated, primary screen (AID 1145); conditions: no forskolin, luminescence, 4.5 h, higher = more signal, called active from +8 up or from −8 down
For each entry below, report its z-score value.
Give bare numbers.

Please review the following examples before continuing.
Compound	Value
C[C@@H]1NC(=O)C([C@@H](C)OCc2ccccc2)NC(=O)[C@@]23C(=O)N[C@@H](Cc4ccccc4)C2[C@H](C)[C@@]2(C)O[C@H]2C3/C=C/C/C=C\CNC1=O (stereo not given in full)	-0.507
C=CC[C@]1(C(=O)NCC(O)CO)COC(c2ccc(OCCCO)cc2)=N1 (stereo not given in full)	0.792
O=C1C=C(c2ccccc2)C(=O)C2=C1CC([C@H]1Oc3ccccc3S(=O)(=O)N3CCC[C@@H]13)=CC2	4.67
CCCCCC1=C2CNC(Cc3ccccc3)(C(=O)OC)C=C2C(C)C1=O (stereo not given)	0.4
CO[C@H]1O[C@H](CO)[C@@H](OC(=O)Nc2ccccc2-c2ccccc2)[C@H](OC(=O)Nc2ccccc2)[C@H]1OC(=O)Nc1ccccc1	-0.254
CCOC(=O)C[C@H]1[C@H](OC(=O)c2cc3ccccc3oc2=O)[C@@H](NC(=O)CC(C)C)c2cc(OCCCO)ccc2N1C(=O)Cc1ccc(OC)cc1	1.02
CCCNC(=O)[C@@]1(Sc2ccc(C)cc2)CC(=O)N(Cc2ccccc2Cl)[C@@H]1c1ccc(CO)cc1I	0.479
C=C(CCCC)/C(=C/C[C@H](OC(=O)c1ccncc1)c1ccc(OCCO)cc1)c1cnc2ccccc2c1	10.9
COc1ccc([Si](C)(C)[C@@H]2[C@@H](CC(=O)N3Cc4ccccc4C[C@H]3CO)O[C@]3(C(=O)N(Cc4cccc(N5CCOC5=O)c4)c4ccccc43)[C@H]2C)cc1	-0.491
CC(C)C(O)C1C=CC2C(=O)NC(=O)C2N1Nc1ccccn1 (stereo not given)	-0.143

Required: z-score, one value per compound below.
1. COc1ccc([Si](C)(C)[C@H]2[C@H](CC(=O)N3Cc4ccccc4C[C@H]3CO)O[C@@]3(C(=O)N(c4ccccc4)c4ccccc43)[C@@H]2C)cc1
2. O=C1O[C@H](Cc2ccccc2)[C@@H]2[C@H]3C=CCCC=C3CN2[C@H]1Cc1ccc(O)cc1

Found:
1. 3.6
2. -0.0546

Required: z-score, one value per compound below.
1. COC(=O)[C@@]1(Cc2ccc(OC)cc2)[C@H]2c3cc(C(=O)N4CCCC4)n(Cc4c(CO)[nH]cc(C)c4=O)c3C[C@H]2CN1C(=O)c1ccccc1
2. O=C(NCc1ccccc1)[C@@H]1c2ccccc2C(=O)N(Cc2ccc(OC(F)(F)F)cc2)[C@H]1c1ccc(CO)cc1
3. CCCC=C(CCC)[C@@H](NC(=O)OCC(C)C)c1ccc(C(=O)OC)cc1

Found:
0.37
0.208
-1.72

The values you see were collected from PubChem BioAssay.
